molecular target: cyno MSLN (Macaca fascicularis); assay: BLI (Octet), bsAb in 1+1 Fab-scFv-Fc format
PROPERTY_NAME: kon
Write the quantity with the unit trailing the number.

Recorded kon, per entry:
BINDER	MEASURED
XENP32556 (bispecific antibody, part only; not given: anti-CD3 scFv-Fc arm, constant regions, V domains shown, not shown: another chain or arm of the molecule; a dimerising Fc or GST; small tags and cut ends) VH: QVQLVQSGAEVKKPGASVKVSCKASGYTFTSYWMHWVRQAPGQGLEWMGMIHPNSDNTIYYEKFQGRVTMTVDKSISTAYMELSRLRSDDTAVYYCARIITPVVPKFDYWGQGTLVTVSS VL: DIVMTQSPDSLAVSLGERATINCKASHDVGTSVAWYQQKPGQSPKLLIYWASTRHTGVPDRFTGSGSGTDFTLTISSLQAEDVAVYFCQQYSSYPLTFGAGTKLEIK	399000 M⁻¹ s⁻¹
XENP31701 (bispecific antibody, part only; not given: anti-CD3 scFv-Fc arm, constant regions, V domains shown, not shown: another chain or arm of the molecule; a dimerising Fc or GST; small tags and cut ends) VH: QVQLVQSGAEVKKPGASVKVSCKASGYTFTSYWMHWVRQAPGQGLEWMGMIHPNSDNTIYYEKFQGRVTMTVDKSISTAYMELSRLRSDDTAVYYCAIIITPVVPKFDYWGQGTLVTVSS VL: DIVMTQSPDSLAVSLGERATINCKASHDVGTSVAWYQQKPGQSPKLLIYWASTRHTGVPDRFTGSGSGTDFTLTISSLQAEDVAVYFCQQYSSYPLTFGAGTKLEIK	612000 M⁻¹ s⁻¹

# input for lookup
In one line, give reported kon of the entry XENP32550 (bispecific antibody, part only; not given: anti-CD3 scFv-Fc arm, constant regions, V domains shown, not shown: another chain or arm of the molecule; a dimerising Fc or GST; small tags and cut ends) VH: QVQLVQSGAEVKKPGASVKVSCKASGYTFTGYWMHWVRQAPGQGLEWMGMIHPNSDNTIYYEKFQGRVTMTVDKSISTAYMELSRLRSDDTAVYYCAIIITPVVPKFDYWGQGTLVTVSS VL: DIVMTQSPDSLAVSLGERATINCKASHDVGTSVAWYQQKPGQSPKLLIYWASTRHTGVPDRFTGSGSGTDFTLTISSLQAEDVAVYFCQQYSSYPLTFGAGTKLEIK .
576000 M⁻¹ s⁻¹
